assay_system: T1, hLRRC33-proTGFβ1 (Homo sapiens, UniProt P01137)
T1 construct: made in house
T1 sequence (P01137 30-390): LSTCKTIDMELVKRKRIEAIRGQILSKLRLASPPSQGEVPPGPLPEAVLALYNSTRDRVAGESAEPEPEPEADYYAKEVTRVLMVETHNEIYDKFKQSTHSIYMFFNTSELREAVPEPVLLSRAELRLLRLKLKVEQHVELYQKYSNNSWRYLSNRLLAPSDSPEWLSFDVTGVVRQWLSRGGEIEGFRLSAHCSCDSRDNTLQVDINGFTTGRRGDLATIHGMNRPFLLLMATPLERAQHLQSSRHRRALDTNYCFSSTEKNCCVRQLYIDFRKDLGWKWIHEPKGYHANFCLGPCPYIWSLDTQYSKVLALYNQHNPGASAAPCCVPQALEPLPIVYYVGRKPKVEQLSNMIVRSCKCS
T1 sequence (Q86YC3 19-650 partner limits assumed): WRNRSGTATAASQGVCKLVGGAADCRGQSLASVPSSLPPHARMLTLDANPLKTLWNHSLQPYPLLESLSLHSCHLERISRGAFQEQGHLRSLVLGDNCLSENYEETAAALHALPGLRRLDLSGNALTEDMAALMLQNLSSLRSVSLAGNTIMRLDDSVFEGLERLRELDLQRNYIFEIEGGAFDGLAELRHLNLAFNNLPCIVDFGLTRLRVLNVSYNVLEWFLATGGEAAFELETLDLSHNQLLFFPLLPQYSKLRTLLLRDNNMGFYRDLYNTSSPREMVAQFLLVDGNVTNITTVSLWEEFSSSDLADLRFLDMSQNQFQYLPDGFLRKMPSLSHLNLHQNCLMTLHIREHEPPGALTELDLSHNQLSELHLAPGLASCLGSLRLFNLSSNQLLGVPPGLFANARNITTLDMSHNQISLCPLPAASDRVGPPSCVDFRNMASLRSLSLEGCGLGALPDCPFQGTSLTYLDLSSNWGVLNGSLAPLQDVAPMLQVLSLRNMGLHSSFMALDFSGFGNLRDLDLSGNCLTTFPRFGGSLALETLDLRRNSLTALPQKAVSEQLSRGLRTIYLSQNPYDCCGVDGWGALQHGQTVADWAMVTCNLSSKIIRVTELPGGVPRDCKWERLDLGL
experiment_notes: MSD-SET solution equilibrium titration binding
measurement_parameters: MSD-SET at equilibrium, hIgG4, human complex; in M
# (F) hLRRC33, Cell-associated proTGFβ1 KD per record follows

>  <molecule>
Ab33: monoclonal antibody; VH SEQ ID NO: 141, VL SEQ ID NO: 15 (antibody, V domains shown) VH: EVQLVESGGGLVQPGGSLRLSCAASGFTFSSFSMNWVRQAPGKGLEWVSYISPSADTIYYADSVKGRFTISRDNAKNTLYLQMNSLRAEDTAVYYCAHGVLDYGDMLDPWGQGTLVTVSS VL: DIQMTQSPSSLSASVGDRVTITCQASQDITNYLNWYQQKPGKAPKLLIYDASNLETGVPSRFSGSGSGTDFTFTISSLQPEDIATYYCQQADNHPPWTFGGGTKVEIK

>  <(F) hLRRC33, Cell-associated proTGFβ1 KD>
4.60E−11

$$$$
>  <molecule>
Ab31: monoclonal antibody; VH SEQ ID NO: 139, VL SEQ ID NO: 15 (antibody, V domains shown) VH: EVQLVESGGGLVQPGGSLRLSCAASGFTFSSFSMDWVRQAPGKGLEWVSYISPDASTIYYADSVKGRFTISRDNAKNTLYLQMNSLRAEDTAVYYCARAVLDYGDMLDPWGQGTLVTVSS VL: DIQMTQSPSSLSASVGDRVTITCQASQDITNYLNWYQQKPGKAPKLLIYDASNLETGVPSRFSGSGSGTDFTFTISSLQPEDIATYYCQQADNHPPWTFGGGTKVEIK

>  <(F) hLRRC33, Cell-associated proTGFβ1 KD>
9.60E−11

$$$$
